Data origin: patent US11530221B2

IC50 reference
Molecular target: ABL1 (Homo sapiens)
Sequence (P00519 whole entry): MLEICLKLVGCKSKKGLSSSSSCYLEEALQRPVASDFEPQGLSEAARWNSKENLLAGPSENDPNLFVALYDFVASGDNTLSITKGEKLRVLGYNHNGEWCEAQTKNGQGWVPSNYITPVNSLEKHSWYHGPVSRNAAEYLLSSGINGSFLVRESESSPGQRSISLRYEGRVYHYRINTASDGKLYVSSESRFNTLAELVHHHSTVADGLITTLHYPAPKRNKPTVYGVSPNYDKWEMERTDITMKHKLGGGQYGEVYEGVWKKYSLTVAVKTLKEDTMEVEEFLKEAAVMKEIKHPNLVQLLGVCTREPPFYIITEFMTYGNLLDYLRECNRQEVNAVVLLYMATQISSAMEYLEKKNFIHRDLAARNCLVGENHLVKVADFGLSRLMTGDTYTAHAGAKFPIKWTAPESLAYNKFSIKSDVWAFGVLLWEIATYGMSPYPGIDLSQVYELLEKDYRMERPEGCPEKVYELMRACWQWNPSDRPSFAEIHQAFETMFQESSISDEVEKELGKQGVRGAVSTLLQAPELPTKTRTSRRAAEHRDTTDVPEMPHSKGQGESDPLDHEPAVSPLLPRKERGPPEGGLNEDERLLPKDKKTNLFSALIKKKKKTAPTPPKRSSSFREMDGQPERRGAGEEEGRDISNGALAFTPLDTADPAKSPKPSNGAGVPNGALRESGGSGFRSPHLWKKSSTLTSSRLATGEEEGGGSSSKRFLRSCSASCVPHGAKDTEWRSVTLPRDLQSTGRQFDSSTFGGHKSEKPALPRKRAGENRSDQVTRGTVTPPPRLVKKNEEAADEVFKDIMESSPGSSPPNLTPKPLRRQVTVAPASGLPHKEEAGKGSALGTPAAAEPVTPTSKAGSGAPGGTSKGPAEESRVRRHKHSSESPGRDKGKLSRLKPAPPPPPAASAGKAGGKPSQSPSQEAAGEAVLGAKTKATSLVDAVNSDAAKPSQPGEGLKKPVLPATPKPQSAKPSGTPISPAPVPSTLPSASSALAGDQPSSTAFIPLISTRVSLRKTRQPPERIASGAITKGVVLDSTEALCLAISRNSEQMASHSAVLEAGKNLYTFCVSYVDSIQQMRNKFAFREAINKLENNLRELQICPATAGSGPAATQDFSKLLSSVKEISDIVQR
Assay: IC50 inhibitory activity against ABL1 kinase
Format: biochemical
Square brackets hold non-standard residues; d marks the D form. Peptide text beside a SMILES is read from it. * marks the point of attachment. X1 = Cc1ccc(Nc2ncc3c(n2)N(C)C(=O)N(c2cc(C(=O)*)ccc2C)C3)cn1; Nva = CCC[C@H](N)C(=O)O; Aib = CC(C)(N)C(=O)O
reported.property: IC50

{"molecule": "Cc1ccc(Nc2ncc3c(n2)N(C)C(=O)N(c2cc(C(=O)N[C@@H](CC(C)C)C(=O)N4CCC[C@H]4C(=O)NC(C)(C)C(=O)N[C@@H](CC(C)C)C(=O)N(C)C)ccc2C)C3)cn1 [Example 20] (X1-LP[Aib]L-NMe2)", "reported.result": "1 to 200 nM"}
{"molecule": "CCC[C@H](NC(=O)c1ccc(C)c(N2Cc3cnc(Nc4ccc(C)nc4)nc3N(C)C2=O)c1)C(=O)N1CCC[C@H]1C(=O)NC(C)(C)C(=O)N[C@@H](CC(C)C)C(=O)N(C)C [Example 21] (X1-[Nva]P[Aib]L-NMe2)", "reported.result": "1 to 200 nM"}
{"molecule": "Cc1ccc(Nc2ncc3c(n2)N(C)C(=O)N(c2cc(C(=O)N[C@H](C(=O)N4CCC[C@H]4C(=O)NC(C)(C)C(=O)N[C@@H](CC(C)C)C(=O)N(C)C)C(C)C)ccc2C)C3)cn1 [Example 1] (X1-VP[Aib]L-NMe2)", "reported.result": "200 to 400 nM"}
{"molecule": "Cc1ccc(Nc2ncc3c(n2)N(C)C(=O)N(c2cc(C(=O)N[C@H](C(=O)N4CCC[C@@H]4C(=O)NC(C)(C)C(=O)N[C@@H](CC(C)C)C(=O)N(C)C)C(C)C)ccc2C)C3)cn1 [Example 2] (X1-V[dP][Aib]L-NMe2)", "reported.result": "200 to 400 nM"}

----------
IC50 reference
Target: UniProt:P00519
Experiment: IC50 inhibitory activity against ABL1 kinase
Type: biochemical
Square brackets hold non-standard residues; d marks the D form. Peptide text beside a SMILES is read from it. * marks the point of attachment. X1 = Cc1ccc(Nc2ncc3c(n2)N(C)C(=O)N(c2cc(C(=O)*)ccc2C)C3)cn1; Chg = N[C@H](C(=O)O)C1CCCCC1; Aze = O=C(O)[C@@H]1CCN1; Aib = CC(C)(N)C(=O)O

{"compound": "Cc1ccc(Nc2ncc3c(n2)N(C)C(=O)N(c2cc(C(=O)NCC(=O)N4CCC[C@H]4C(=O)NC(C)(C)C(=O)N[C@@H](CC(C)C)C(=O)N(C)C)ccc2C)C3)cn1 [Example 18] (X1-GP[Aib]L-NMe2)", "IC50": "1 to 200 nM"}
{"compound": "Cc1ccc(Nc2ncc3c(n2)N(C)C(=O)N(c2cc(C(=O)N[C@H](C(=O)N4CCC[C@H]4C(=O)NC(C)(C)C(=O)N[C@@H](CC(C)C)C(=O)N(C)C)C4CCCCC4)ccc2C)C3)cn1 [Example 19] (X1-[Chg]P[Aib]L-NMe2)", "IC50": "200 to 400 nM"}
{"compound": "Cc1ccc(Nc2ncc3c(n2)N(C)C(=O)N(c2cc(C(=O)N[C@H](C(=O)N4CC[C@H]4C(=O)NC(C)(C)C(=O)N[C@@H](CC(C)C)C(=O)N(C)C)C(C)C)ccc2C)C3)cn1 [Example 15] (X1-V[Aze][Aib]L-NMe2)", "IC50": "1 to 200 nM"}
